B1: ZNF263 (parent)
chain: FGGNPRFLSLHRAHLGEEAHKCLE

Variants of: B1
Experiment: protein stability index of a GFP-peptide fusion (GPS, HEK-293T) (PSI 1-6); higher = more stable;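 note: lentivirally expressed fusions sorted by FACS into six bins by GFP to DsRed ratio, PSI derived from sequencing read proportions per bin multiplied by bin number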
Conditions: c terminus: a fixed tail appended
property.label: protein stability index

• L10Q = 2
• R12L = 1.56
• H14E = 1.15
